tested on: LU99A; test: relative viability (nuclei count vs DMSO), 5 days (fraction); higher = more cells survive; conditions: first compound 0.003162 µM
Readout: relative viability
Lab note: jot the number down without any unit.

# annotated cases, reported relative viability shown
Compound	relative viability
Cc1cn(-c2cc(NC(=O)c3ccc(C)c(Nc4nccc(-c5cccnc5)n4)c3)cc(C(F)(F)F)c2)cn1 [Nilotinib] + CC(C)C[C@H](NC(=O)[C@H](Cc1ccccc1)NC(=O)c1cnccn1)B(O)O [Bortezomib] (partner 0.002 µM)	1.1
Cc1cn(-c2cc(NC(=O)c3ccc(C)c(Nc4nccc(-c5cccnc5)n4)c3)cc(C(F)(F)F)c2)cn1 [Nilotinib] + N=C(N)NC(=N)NCCc1ccccc1 [Phenformin] (partner 250 µM)	0.907

Recorded relative viability for Cc1cn(-c2cc(NC(=O)c3ccc(C)c(Nc4nccc(-c5cccnc5)n4)c3)cc(C(F)(F)F)c2)cn1 [Nilotinib] + COc1cc2c(Oc3ccc(NC(=O)C4(C(=O)Nc5ccc(F)cc5)CC4)cc3F)ccnc2cc1OCCCN1CCOCC1 [Foretinib] (partner 0.25 µM) with LU99A, please? 0.848

Form: Entry = Cc1cn(-c2cc(NC(=O)c3ccc(C)c(Nc4nccc(-c5cccnc5)n4)c3)cc(C(F)(F)F)c2)cn1 [Nilotinib] + C[C@@H](Oc1cc(-c2cnn(C3CCNCC3)c2)cnc1N)c1c(Cl)ccc(F)c1Cl [Crizotinib] (partner 1 µM) | System = LU99A | relative viability = ____ 0.545

====

system: ABC-1; test: relative viability (nuclei count vs DMSO), 5 days (fraction); higher = more cells survive; conditions: first compound 0.6325 µM
List of relative viability values.

Molecule	Target entity	relative viability
CN1CCN(CCOc2cc(OC3CCOCC3)c3c(Nc4c(Cl)ccc5c4OCO5)ncnc3c2)CC1 [Saracatinib] + CC(=O)c1c(C)c2cnc(Nc3ccc(N4CCNCC4)cn3)nc2n(C2CCCC2)c1=O [Palbociclib] (partner 0.5 µM)	ABC-1	0.891

Alright, here's another molecule for you.
# get_value(readout='relative viability', item= Cc1csc(=NC2CCCCC2)n1/N=C/c1ccc(O)c(O)c1O [MIM1] + C[C@@H](Oc1cc(-c2cnn(C3CCNCC3)c2)cnc1N)c1c(Cl)ccc(F)c1Cl [Crizotinib] (partner 1 µM) ) 1.22

====

test system: A549; assay: relative viability (nuclei count vs DMSO), 5 days (fraction); higher = more cells survive; details: first compound 0.2 µM
Readout: relative viability
Could you keep your reply to the number by itself?

Compound	Target entity	relative viability
CCNC(=O)c1noc(-c2cc(C(C)C)c(O)cc2O)c1-c1ccc(CN2CCOCC2)cc1 [Luminespib] + Cc1nc(NC(=O)N2CCC[C@H]2C(N)=O)sc1-c1ccnc(C(C)(C)C(F)(F)F)c1 [Alpelisib] (partner 2 µM)	A549	0.036

Shifting focus to the compound that follows.
Request: relative viability, test system A549, entry CCNC(=O)c1noc(-c2cc(C(C)C)c(O)cc2O)c1-c1ccc(CN2CCOCC2)cc1 [Luminespib] + N=C(N)NC(=N)NCCc1ccccc1 [Phenformin] (partner 250 µM) 0.0225

====

system: NCI-H358; assay: relative viability (nuclei count vs DMSO), 5 days (fraction); higher = more cells survive; settings: first compound 2 µM
List of relative viability values.
No unit in the answer, only the number.

Compound	relative viability
CN1CCN(CCOc2cc(OC3CCOCC3)c3c(Nc4c(Cl)ccc5c4OCO5)ncnc3c2)CC1 [Saracatinib] + Cc1nc(Nc2ncc(C(=O)Nc3c(C)cccc3Cl)s2)cc(N2CCN(CCO)CC2)n1 [Dasatinib] (partner 0.075 µM)	0.103

I am curious: what relative viability value has been reported for CN1CCN(CCOc2cc(OC3CCOCC3)c3c(Nc4c(Cl)ccc5c4OCO5)ncnc3c2)CC1 [Saracatinib] + C[C@]1(O)C[C@@H](c2nc(-c3ccc4ccc(-c5ccccc5)nc4c3)c3c(N)nccn32)C1 [Linsitinib] (partner 1 µM) ? 0.279
